Values were extracted from ChEMBL document CHEMBL1961873.

# Test system: Leucine-rich repeat serine/threonine-protein kinase 2 (Homo sapiens), Q5S007 [G2019S]
# Sequence (Q5S007 whole entry G2019S): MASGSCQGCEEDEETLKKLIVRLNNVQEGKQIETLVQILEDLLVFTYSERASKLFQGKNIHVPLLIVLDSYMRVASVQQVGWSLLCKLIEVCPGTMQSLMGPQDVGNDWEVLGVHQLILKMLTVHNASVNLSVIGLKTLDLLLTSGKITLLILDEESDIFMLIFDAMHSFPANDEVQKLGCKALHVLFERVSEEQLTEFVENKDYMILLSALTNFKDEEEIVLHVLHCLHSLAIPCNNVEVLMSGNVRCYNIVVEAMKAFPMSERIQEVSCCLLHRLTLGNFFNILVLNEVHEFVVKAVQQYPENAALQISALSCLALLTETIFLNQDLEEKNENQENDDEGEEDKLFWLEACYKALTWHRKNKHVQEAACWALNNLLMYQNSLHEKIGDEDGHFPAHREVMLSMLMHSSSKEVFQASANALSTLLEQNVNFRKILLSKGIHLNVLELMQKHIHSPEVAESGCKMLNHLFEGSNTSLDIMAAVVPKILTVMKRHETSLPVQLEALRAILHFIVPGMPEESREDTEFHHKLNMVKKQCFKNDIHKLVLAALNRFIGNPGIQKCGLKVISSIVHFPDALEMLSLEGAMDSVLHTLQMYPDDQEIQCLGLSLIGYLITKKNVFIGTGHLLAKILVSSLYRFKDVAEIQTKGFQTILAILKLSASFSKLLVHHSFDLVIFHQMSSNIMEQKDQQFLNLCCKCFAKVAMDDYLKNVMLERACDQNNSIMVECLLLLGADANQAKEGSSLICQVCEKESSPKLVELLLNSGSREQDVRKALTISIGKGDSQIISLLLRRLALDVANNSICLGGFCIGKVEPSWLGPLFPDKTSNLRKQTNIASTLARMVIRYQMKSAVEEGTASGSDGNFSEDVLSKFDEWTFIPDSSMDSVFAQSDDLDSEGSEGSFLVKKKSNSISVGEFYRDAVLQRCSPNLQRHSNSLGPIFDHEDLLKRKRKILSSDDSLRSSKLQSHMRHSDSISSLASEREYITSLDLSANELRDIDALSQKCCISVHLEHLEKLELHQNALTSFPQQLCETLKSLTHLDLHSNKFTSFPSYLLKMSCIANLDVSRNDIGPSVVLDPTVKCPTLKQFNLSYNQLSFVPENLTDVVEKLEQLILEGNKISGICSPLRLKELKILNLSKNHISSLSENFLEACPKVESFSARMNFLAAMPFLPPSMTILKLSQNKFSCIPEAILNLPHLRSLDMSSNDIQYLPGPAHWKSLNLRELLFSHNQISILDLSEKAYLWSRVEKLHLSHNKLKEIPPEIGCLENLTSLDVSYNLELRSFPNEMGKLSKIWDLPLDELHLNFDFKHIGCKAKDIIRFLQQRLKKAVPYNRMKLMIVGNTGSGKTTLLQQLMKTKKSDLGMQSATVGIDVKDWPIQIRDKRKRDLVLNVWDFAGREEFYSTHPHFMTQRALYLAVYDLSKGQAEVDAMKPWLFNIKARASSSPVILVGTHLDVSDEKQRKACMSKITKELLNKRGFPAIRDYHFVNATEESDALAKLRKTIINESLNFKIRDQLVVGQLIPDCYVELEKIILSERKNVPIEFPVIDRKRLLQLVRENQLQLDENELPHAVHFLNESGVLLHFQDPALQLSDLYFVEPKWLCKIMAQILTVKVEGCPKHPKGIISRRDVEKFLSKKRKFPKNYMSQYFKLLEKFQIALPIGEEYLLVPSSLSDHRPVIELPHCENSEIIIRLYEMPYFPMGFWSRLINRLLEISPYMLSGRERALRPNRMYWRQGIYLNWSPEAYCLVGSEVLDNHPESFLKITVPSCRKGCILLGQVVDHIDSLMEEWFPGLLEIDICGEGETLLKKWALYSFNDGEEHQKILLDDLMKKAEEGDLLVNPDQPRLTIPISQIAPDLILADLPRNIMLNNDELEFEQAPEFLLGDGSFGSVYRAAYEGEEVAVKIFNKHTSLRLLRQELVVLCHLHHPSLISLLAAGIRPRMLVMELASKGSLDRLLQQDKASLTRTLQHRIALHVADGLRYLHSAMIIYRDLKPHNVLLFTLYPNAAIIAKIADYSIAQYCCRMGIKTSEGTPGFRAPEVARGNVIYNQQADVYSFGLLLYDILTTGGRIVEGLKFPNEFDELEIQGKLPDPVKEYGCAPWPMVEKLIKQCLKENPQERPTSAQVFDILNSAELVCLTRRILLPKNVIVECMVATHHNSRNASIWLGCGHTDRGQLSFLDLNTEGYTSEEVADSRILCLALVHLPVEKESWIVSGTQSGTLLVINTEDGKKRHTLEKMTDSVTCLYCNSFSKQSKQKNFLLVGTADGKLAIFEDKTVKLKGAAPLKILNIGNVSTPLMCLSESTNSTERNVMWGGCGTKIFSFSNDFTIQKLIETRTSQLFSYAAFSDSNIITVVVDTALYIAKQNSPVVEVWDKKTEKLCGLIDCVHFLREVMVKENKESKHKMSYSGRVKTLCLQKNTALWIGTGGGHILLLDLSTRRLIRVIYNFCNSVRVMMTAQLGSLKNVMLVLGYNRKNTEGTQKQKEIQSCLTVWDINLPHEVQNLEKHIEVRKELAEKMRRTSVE
# assayConditions: at 0.1 µM
Measured inhibition, listed per entry.
measurementKind: inhibition (%)

recordSmiles	measurementKind	scaleUnit	number
c1ccc(Oc2ccc(Nc3ncc(-c4ccccc4)o3)cc2)cc1	inhibition	%	4.15
O=C(Nc1n[nH]c2cc(-c3cc(F)ccc3F)ccc12)C1CC1	inhibition	%	1.81
NCc1ccc(-n2c(-c3nonc3N)nc3cnccc32)cc1	inhibition	%	22
NS(=O)(=O)c1ccc(Nc2cc(-c3ccc(O)c(F)c3)n[nH]2)cc1	inhibition	%	4.54
NS(=O)(=O)c1ccc(N/N=C2\C(=O)Nc3ccc(-c4cnco4)cc32)cc1	inhibition	%	32.2
COc1cc2ncn(-c3cc(OCc4ccccc4C(F)(F)F)c(C(C)=O)s3)c2cc1OC	inhibition	%	3.58
CN(C)CCCNc1nccc(-c2c(-c3ccc(F)cc3)nn3cc(C(F)(F)F)ccc23)n1	inhibition	%	-0.33
COc1cc(N2CCN(C(C)C)CC2)ccc1Nc1nc(Nc2ccc(F)cc2C(=O)NC[C@@H](O)CO)c2cc[nH]c2n1	inhibition	%	48.9
NS(=O)(=O)c1ccc(N/N=C2\C(=O)Nc3ccc(C(=O)NCCCn4ccnc4)cc32)cc1	inhibition	%	11.1

---

# assayedSystem: Dual specificity protein kinase TTK (Homo sapiens) (UniProt P33981)
# Sequence (P33981 whole entry): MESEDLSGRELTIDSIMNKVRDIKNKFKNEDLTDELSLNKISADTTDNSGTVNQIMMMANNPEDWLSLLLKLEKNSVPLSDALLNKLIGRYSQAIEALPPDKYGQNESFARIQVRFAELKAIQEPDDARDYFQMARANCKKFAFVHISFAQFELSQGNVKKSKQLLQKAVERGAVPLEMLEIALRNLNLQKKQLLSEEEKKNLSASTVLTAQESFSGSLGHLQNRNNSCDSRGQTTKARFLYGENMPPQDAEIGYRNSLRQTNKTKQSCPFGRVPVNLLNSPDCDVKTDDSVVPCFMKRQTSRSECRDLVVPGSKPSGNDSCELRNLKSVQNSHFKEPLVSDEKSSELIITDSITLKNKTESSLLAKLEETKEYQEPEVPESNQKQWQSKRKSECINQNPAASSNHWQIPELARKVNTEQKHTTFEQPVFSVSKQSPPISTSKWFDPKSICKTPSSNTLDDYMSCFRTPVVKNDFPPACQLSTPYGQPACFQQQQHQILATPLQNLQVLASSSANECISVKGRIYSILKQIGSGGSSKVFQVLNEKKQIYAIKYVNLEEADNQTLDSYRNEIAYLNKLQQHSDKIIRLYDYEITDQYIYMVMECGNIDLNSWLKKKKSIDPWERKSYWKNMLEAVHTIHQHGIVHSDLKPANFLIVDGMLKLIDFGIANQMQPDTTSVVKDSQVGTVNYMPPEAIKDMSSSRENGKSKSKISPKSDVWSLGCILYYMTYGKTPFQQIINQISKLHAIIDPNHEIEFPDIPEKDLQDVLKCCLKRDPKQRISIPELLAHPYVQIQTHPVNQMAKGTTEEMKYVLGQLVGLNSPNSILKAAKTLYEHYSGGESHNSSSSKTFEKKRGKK
# assayConditions: at 0.1 µM
# Description: GSK_PKIS: TTK mean inhibition at 0.1 uM [Nanosyn]
Measured inhibition, listed per entry.
measurementKind: inhibition (%)

recordSmiles	number
Fc1ccc(-c2ncn(CCCN3CCOCC3)c2-c2ccncc2)cc1	5.04
NCc1ccc(-n2c(-c3nonc3N)nc3cnccc32)cc1	19.4
CNC(=O)c1cncc(/C=C/c2c(C)cccc2C)c1	1.49
NS(=O)(=O)c1ccc(N/N=C2\C(=O)Nc3ccc(-c4cnco4)cc32)cc1	15.1
COc1cc2ncn(-c3cc(OCc4ccccc4C(F)(F)F)c(C(C)=O)s3)c2cc1OC	6.18
CCN(CC)Cc1ccc(Nc2nccc(-c3cnn4ncccc34)n2)cc1	12.4
Cc1nnc(-c2ccc(C)c(-c3ccc(C(=O)NCc4ccc(Cl)cc4)cc3)c2)o1	11.7
COc1cccc(/C=N/Nc2ncnc3c2cnn3-c2cccc(OC)c2)c1	7.19
Cc1ccc(C(=O)NC(C)C)cc1-c1ccc(C(=O)NCC2CC2)cc1	-5.71
Cc1ccc(C(=O)NC2CCC2)cc1-c1ccc(C(=O)NCC2CC2)cc1	4.58
COc1ccc2cc(-c3c(-c4ccncc4)nc(-c4ccc(S(C)(=O)=O)cc4C)n3C)ccc2c1	11.5
NC(=O)c1ccc(Oc2nccc(-c3c(-c4ccc(F)cc4)ncn3C3CCNCC3)n2)cc1	8.68
CCC(=O)Nc1ccc(C)c(-c2ccc(C(=O)NCC3CC3)cc2)c1	8.14
FC(F)(F)c1cccc(Nc2nccc(-c3cnn4nc(-c5ccccc5)ccc34)n2)c1	3.1
Fc1ccc(-c2ncn(C3CCNCC3)c2-c2ccnc(Oc3ccc(F)c(F)c3)n2)cc1	10.3
COc1cc(Nc2ncc3c(C)nc(-c4cccc(C(F)(F)F)c4)n3n2)cc(OC)c1OC	8.36
O=C1Nc2ccccc2/C1=C/Nc1ccc(-n2cncn2)cc1	22.4
COc1cccc(-n2cnc3c(N/N=C/c4ccncc4)ncnc32)c1	0.25
CN(C)CCOc1ccc(-c2cc(-c3ccc4c(c3)CCC4=NO)c(-c3ccncc3)o2)cc1	1.31
Clc1ccc(CNc2nccc(-c3cnn4ncccc34)n2)cc1	0.13
O=C(Nc1ccc(Oc2ccc3[nH]c(NC(=O)c4ccccc4)nc3c2)cc1)Nc1cc(C(F)(F)F)ccc1F	5.51
NS(=O)(=O)c1ccc(Nc2cc(-c3ccc(O)c(F)c3)n[nH]2)cc1	-2.03
CCc1ccc(Oc2nccc(-c3c(-c4ccc(F)cc4)ncn3C3CCNCC3)n2)cc1	5.58
Cc1ccc(NC(=O)c2ccoc2)cc1-c1ccc(C(=O)NCC2CC2)cc1	4.04
CN(c1ccc(NC(=O)Nc2c(Cl)cccc2Cl)cc1)c1ccnc(Nc2cccc(CS(C)(=O)=O)c2)n1	3.9
CN(C)CCCNc1nccc(-c2c(-c3ccc(F)cc3)nn3cc(C(F)(F)F)ccc23)n1	2.37
O=C(Nc1n[nH]c2cc(-c3cc(F)ccc3F)ccc12)C1CC1	8.84
Fc1ccc(-c2nc3n(c2-c2ccncc2)CCS3)cc1	6.93
C#Cc1cccc(Nc2ncnc3ccc(OCCCCNCCS(C)(=O)=O)cc23)c1	9.49
COc1ccc2ncn(-c3cc(O[C@H](C)c4ccccc4Cl)c(C(N)=O)s3)c2c1	6.36
O=C(Nc1n[nH]c2nc(-c3ccc(O)cc3)c(Br)cc12)C1CC1	10.2
COc1cc(N2CCN(C(C)C)CC2)ccc1Nc1nc(Nc2ccc(F)cc2C(=O)NC[C@@H](O)CO)c2cc[nH]c2n1	74
CS(=O)(=O)CCNCc1cc(-c2cc3c(Nc4ccc(OCc5cccc(F)c5)c(Cl)c4)ncnc3s2)cs1	9.23
C[C@@H](Oc1cc(-n2cnc3ccc(OC4CCN(C)CC4)cc32)sc1C(N)=O)c1ccccc1Cl	6.06
c1ccc(-c2n[nH]cc2-c2ccnc(-c3ccc(OCCN4CCOCC4)cc3)c2)nc1	-2.01
O=C(Nc1n[nH]c2nc(-c3ccco3)ccc12)C1CC1	1.09
O=C(Nc1n[nH]c2cc(-c3ccccc3)ccc12)C1CC1	5.95
Fc1ccc(-c2c(-c3ccncc3)nc3n2CCS3)cc1	5.74

---

# assayedSystem: Cyclin-dependent kinase 2 (Homo sapiens) (UniProt P24941);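 further: mean inhibition of the CDK2–cyclin A kinase complex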
# assayConditions: at 1 µM
measurementKind: inhibition

recordSmiles	assayedSystem	result
Cc1ccc(NC(=O)c2ccoc2)cc1-c1ccc(C(=O)NCC2CC2)cc1	Cyclin-dependent kinase 2 (Homo sapiens) (UniProt P24941)	1.04%
Fc1ccc(-c2nc3n(c2-c2ccncc2)CCS3)cc1	Cyclin-dependent kinase 2 (Homo sapiens) (UniProt P24941)	1.08%
CS(=O)(=O)CCNCc1ccc(-c2ccc3ncnc(Nc4ccc(OCc5ccccc5)c(Br)c4)c3c2)o1	Cyclin-dependent kinase 2 (Homo sapiens) (UniProt P24941)	-1.03%
C[C@@H](Oc1cc(-n2cnc3ccc(OC4CCN(C)CC4)cc32)sc1C(N)=O)c1ccccc1Cl	Cyclin-dependent kinase 2 (Homo sapiens) (UniProt P24941)	-0.94%
Fc1ccc(-c2ncn(CCCN3CCOCC3)c2-c2ccncc2)cc1	Cyclin-dependent kinase 2 (Homo sapiens) (UniProt P24941)	0.72%
Cc1ccc(C(=O)NC(C)C)cc1-c1ccc(C(=O)NCC2CC2)cc1	Cyclin-dependent kinase 2 (Homo sapiens) (UniProt P24941)	-0.04%
COc1cc(Nc2ncc(-c3ccccc3)o2)cc(OC)c1OC	Cyclin-dependent kinase 2 (Homo sapiens) (UniProt P24941)	9.21%
NC(=O)c1cc(-c2ccncc2)cc(-c2ccccc2)c1N	Cyclin-dependent kinase 2 (Homo sapiens) (UniProt P24941)	5.38%
O=C1NC(=O)C(c2cccc(Cl)c2)=C1Nc1ccc(Cl)c(C(=O)O)c1	Cyclin-dependent kinase 2 (Homo sapiens) (UniProt P24941)	9.11%
COc1ccc2cc(-c3c(-c4ccncc4)nc(-c4ccc(S(C)(=O)=O)cc4C)n3C)ccc2c1	Cyclin-dependent kinase 2 (Homo sapiens) (UniProt P24941)	-7.25%
CCS(=O)(=O)c1ccc(OC)c(Nc2ncc(-c3cccc(-c4ccccc4F)c3)o2)c1	Cyclin-dependent kinase 2 (Homo sapiens) (UniProt P24941)	7.78%
O=C(Nc1n[nH]c2nc(-c3ccc(O)cc3)c(Br)cc12)C1CC1	Cyclin-dependent kinase 2 (Homo sapiens) (UniProt P24941)	108%
C#Cc1cccc(Nc2ncnc3ccc(OCCCCNCCS(C)(=O)=O)cc23)c1	Cyclin-dependent kinase 2 (Homo sapiens) (UniProt P24941)	-0.68%

---

Measured inhibition, listed per entry.
# assayedSystem: Protein kinase C gamma type (Homo sapiens);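 further: values are mean percent inhibition of PKC gamma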
# assayConditions: at 0.1 µM
measurementKind: inhibition

recordSmiles	assayedSystem	result
O=C1NC(=O)C(c2cccc(Cl)c2)=C1Nc1ccc(Cl)c(C(=O)O)c1	Protein kinase C gamma type (Homo sapiens)	4.02%
Cc1ccc(NC(=O)c2ccoc2)cc1-c1ccc(C(=O)NCC2CC2)cc1	Protein kinase C gamma type (Homo sapiens)	-1.55%
CCc1nccc2c1nc(-c1nonc1N)n2CC	Protein kinase C gamma type (Homo sapiens)	-1.83%
O=C(Nc1ccc(Oc2ccc3[nH]c(NC(=O)c4ccccc4)nc3c2)cc1)Nc1cc(C(F)(F)F)ccc1F	Protein kinase C gamma type (Homo sapiens)	3.6%
COC(=O)Nc1nc2ccc(Sc3ccc(NC(=O)Nc4cc(C(F)(F)F)ccc4F)cc3)cc2[nH]1	Protein kinase C gamma type (Homo sapiens)	2.88%

---

# assayedSystem: Protein kinase C iota type (Homo sapiens);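 further: reported figures are mean inhibition values from the GSK PKIS screen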
# Sequence (whole entry): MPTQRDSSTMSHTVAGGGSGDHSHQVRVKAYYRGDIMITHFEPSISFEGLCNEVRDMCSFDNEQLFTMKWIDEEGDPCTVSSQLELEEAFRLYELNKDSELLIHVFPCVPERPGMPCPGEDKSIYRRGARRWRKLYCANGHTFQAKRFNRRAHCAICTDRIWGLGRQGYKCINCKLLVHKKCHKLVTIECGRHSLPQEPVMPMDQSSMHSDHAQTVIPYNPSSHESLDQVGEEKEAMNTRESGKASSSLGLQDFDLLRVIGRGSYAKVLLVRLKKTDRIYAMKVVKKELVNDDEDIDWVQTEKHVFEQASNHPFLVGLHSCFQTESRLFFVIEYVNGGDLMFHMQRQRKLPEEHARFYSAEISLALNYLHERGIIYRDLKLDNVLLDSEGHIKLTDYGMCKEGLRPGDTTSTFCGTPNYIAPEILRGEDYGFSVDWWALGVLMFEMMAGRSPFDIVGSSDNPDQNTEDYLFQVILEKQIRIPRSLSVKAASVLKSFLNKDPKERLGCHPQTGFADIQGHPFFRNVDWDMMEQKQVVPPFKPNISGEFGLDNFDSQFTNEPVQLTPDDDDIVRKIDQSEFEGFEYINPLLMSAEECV
# assayConditions: at 1 µM

recordSmiles	inhibition / %
COc1cccc(/C=N/Nc2ncnc3c2cnn3-c2cccc(OC)c2)c1	1.72
Cc1ccc(NC(=O)c2ccoc2)cc1-c1ccc(C(=O)NCC2CC2)cc1	-0.02
c1ccc(Oc2ccc(Nc3ncc(-c4ccccc4)o3)cc2)cc1	0.57
COc1cc2ncn(-c3cc(OCc4cccs4)c(C(N)=O)s3)c2cc1OC	0.01
O=C1Nc2ccc(I)cc2C1=Cc1cc(Br)c(O)c(Br)c1	1.75
FC(F)(F)c1cccc(Nc2nccc(-c3cnn4nc(-c5ccccc5)ccc34)n2)c1	0.06
NS(=O)(=O)c1ccc(N/N=C2\C(=O)Nc3ccc(C(=O)NCCCn4ccnc4)cc32)cc1	1.81
CCc1cccc(CC)c1/C=C/c1cncc(C(=O)NC)c1	3.47
Fc1ccc(-c2ncn(C3CCNCC3)c2-c2ccnc(Oc3ccc(Oc4ccccc4)cc3)n2)cc1	2.19
C[C@@H](Oc1cc(-n2cnc3ccc(OCC4CCN(C)CC4)cc32)sc1C(N)=O)c1ccccc1Cl	2.7
NC(=O)c1cc(-c2ccc(F)cc2)cc(-c2ccncc2)c1N	0.87
O=C(Nc1ccc(Oc2ccc3[nH]c(NC(=O)c4ccccc4)nc3c2)cc1)Nc1cc(C(F)(F)F)ccc1F	0.93
COc1cc(C)c(N(C)C(=O)CN(C)C)cc1Nc1nc(Nc2cccc(F)c2C(N)=O)c2cc[nH]c2n1	1.43
CS(=O)(=O)CCNCc1ccc(-c2ccc3ncnc(Nc4ccc(OCc5ccccc5)c(Br)c4)c3c2)o1	2.72
O=C(Nc1n[nH]c2cc(-c3ccccc3)ccc12)C1CC1	3.51
COc1cc(N2CCN(C(C)C)CC2)ccc1Nc1nc(Nc2ccc(F)cc2C(=O)NC[C@@H](O)CO)c2cc[nH]c2n1	0.36
Fc1ccc(-c2ncn(CCCN3CCOCC3)c2-c2ccncc2)cc1	0.41
COc1cc(Nc2ncc(-c3ccccc3)o2)cc(OC)c1OC	0.77
CNC(=O)c1cncc(/C=C/c2c(C)cccc2C)c1	-1.56
CCS(=O)(=O)c1ccc(OC)c(Nc2ncc(-c3cccc(-c4ccccc4F)c3)o2)c1	3.5
COC(=O)Nc1nc2ccc(Sc3ccc(NC(=O)Nc4cc(C(F)(F)F)ccc4F)cc3)cc2[nH]1	0.22
CCC(=O)Nc1ccc(C)c(-c2ccc(C(=O)NCC3CC3)cc2)c1	0.41
O=C(Nc1n[nH]c2cc(-c3cc(F)ccc3F)ccc12)C1CC1	2.69
CCS(=O)(=O)c1ccc(OC)c(Nc2ncc(-c3ccccc3Cl)o2)c1	-1.52
